- Subject of test: hEXOG wild type (hEXOG-dN58) (human, UniProt Q9Y2C4 59-368, del2-58)
- Assay info: fluorescence anisotropy; 20 mM EDTA; apparent Kd; EK140: 20 mM HEPES pH 7.5, 140 mM KCl, 1 mM TCEP, 5% glycerol; plus 20 mM EDTA for anisotropy and EMSA (gel at 4 C, 0.5x TBE with 20 mM EDTA); ITC in EK140 at 20 C
- Condition: protein: recombinant; tags: C-terminal His-tag; chain copies: 2; label: 3'-fluorescein; 10 bp duplex
pKd: −log10 of the molar value.
Reported property: pKd

1. 10 bp 5'OH-dsDNA, 3'-fluorescein (dsDNA, 5'-OH) DNA 1: CTGACGTGCG DNA 2: CGCACGTCAG
7.65

Origin of measurements: paper PMC5418593
